System: RPMI-8226
Experiment: NCI tumour cell line growth inhibition, 48 h
Activity calls are given as the source filed them. Rule as the data show it: active = GI50 up to about 1.1 µM and inactive = higher.
Possible outcomes: active, inactive

molecule=CC(=O)/C(=C/c1ccccc1F)C(=O)c1ccccc1 target_or_system=RPMI-8226 assigned_label=inactive
molecule="CCOC1Oc2ccccc2-c2nc(SC)ncc21 (configuration not stated)" target_or_system=RPMI-8226 assigned_label=inactive
molecule=Cn1c(=O)oc2cc(C(=S)N3CCCCC3)ccc21 target_or_system=RPMI-8226 assigned_label=inactive
molecule=COC(CN(C=O)[C@@H](c1ccc(Cl)cc1)c1cc2ccccc2o1)OC target_or_system=RPMI-8226 assigned_label=inactive
molecule=COc1cc2cnc(-c3ccccc3)cc2cc1OC target_or_system=RPMI-8226 assigned_label=inactive
molecule="O=C(CC(C(=O)c1ccsc1)c1cccs1)c1cccs1 (configuration not stated)" target_or_system=RPMI-8226 assigned_label=inactive
molecule=O=C(CCc1nnc(S)[nH]1)Nc1cc(Cl)c(Cl)cc1Cl target_or_system=RPMI-8226 assigned_label=inactive
molecule="O=C1C2=Cc3ccccc3OC2(O)Oc2ccc(O)cc21 (configuration not stated)" target_or_system=RPMI-8226 assigned_label=inactive
molecule=CNc1ccc([N+](=O)[O-])cc1C(=O)N1CCC[C@H]1CO target_or_system=RPMI-8226 assigned_label=inactive
molecule="COC(OC)C(C)CC(=O)N(C)C (configuration not stated)" target_or_system=RPMI-8226 assigned_label=inactive
molecule="O=C(CC(=O)N1N=C(c2ccccc2)C(/N=N/c2ccccc2Cl)C1=O)Nc1ccccc1Cl (configuration not stated)" target_or_system=RPMI-8226 assigned_label=inactive
molecule=CCN(CCCl)c1cc(CN(C)C)cc(NC(=O)c2ccc(C(=O)Nc3cccc(CN(C)C)c3)cc2)c1 target_or_system=RPMI-8226 assigned_label=inactive
molecule=Cc1cc(O)c2c(c1)C(=O)C=C(Br)C2=O target_or_system=RPMI-8226 assigned_label=inactive
molecule="CCOC1c2cc(OC)c(OC)cc2-c2ccc3ccccc3c2N1C (configuration not stated)" target_or_system=RPMI-8226 assigned_label=inactive
molecule="O=C(c1ccccc1)c1c(CC(O)c2ccncc2)n(C(=O)c2ccccc2)c2ccccc12 (configuration not stated)" target_or_system=RPMI-8226 assigned_label=inactive
molecule=Cc1ccc(NC(=O)c2ccccc2C(=O)O)cc1C target_or_system=RPMI-8226 assigned_label=inactive
molecule="COc1ccc(/C=C\\c2cc(OC)c(OC)c(OC)c2)c(O)c1O [COMBRETASTATIN A-1]" target_or_system=RPMI-8226 assigned_label=active
molecule=N=C(NC(=N)Nc1ccc(S(=O)(=O)Nc2cnc3ccccc3n2)cc1)Nc1ccc(Br)cc1 target_or_system=RPMI-8226 assigned_label=inactive
molecule=Cc1ccnc2nc(-c3ccc(F)cc3)cc(O)c12 target_or_system=RPMI-8226 assigned_label=inactive
molecule=CN(C)c1ccc(C(=C(c2ccc(N(C)C)cc2)c2ccc(N(C)C)cc2)c2ccc(N(C)C)cc2)cc1 target_or_system=RPMI-8226 assigned_label=inactive
molecule="COC(=O)C1OC(SCCN)C(O)C(O)C1O (configuration not stated)" target_or_system=RPMI-8226 assigned_label=inactive
molecule=CC1=C(C(=O)N[C@@H](CC(C)C)C(=O)O)N2C(=O)[C@@H](NC(=O)[C@@H](N)Cc3ccccc3)[C@H]2SC1 target_or_system=RPMI-8226 assigned_label=inactive
